Where do these numbers come from? They come from patent US20240043507A1.

Target: spike protein of SARS-CoV-2 strain B.1.1.7 (SARS-CoV-2, UniProt P0DTC2 14-1273)
Experiment: cell-based or functional assay
METRIC: IC50 (FRNT neutralisation)

[in] # get_value(readout='IC50 (FRNT neutralisation)', item= antibody 278 (antibody, V domains shown, also called mAb 278) VH: QVQLVQSGAEVKKPGASVKVSCKASGYIFIRYGISWVRQAPGQGLEWMGWISANNGYTNYAQKLQGRVTMTTDTSTSTAYMELRSLRSDDTAVYYCARDGGILTGYLDYFDHWGQGTLVTVSS VL: DIQMTQSPSSLSASVGDRLTITCRASQSIASYLNWYQQKPGKAPKLLIYAASSLQSGVPSRFSGSGSGTDFTLTISSLQPEDFATYHCQQSYSTLGITFGPGTKVDIK )
[out] 0.307 µg/mL
